Collected inhibition values appear next to each entry.
target: MAPK1 (human) (UniProt P28482); assay: Caliper, Mobility shift assay off-chip; settings: compound 1.0 µM
Sequence (P28482 whole entry, looked up): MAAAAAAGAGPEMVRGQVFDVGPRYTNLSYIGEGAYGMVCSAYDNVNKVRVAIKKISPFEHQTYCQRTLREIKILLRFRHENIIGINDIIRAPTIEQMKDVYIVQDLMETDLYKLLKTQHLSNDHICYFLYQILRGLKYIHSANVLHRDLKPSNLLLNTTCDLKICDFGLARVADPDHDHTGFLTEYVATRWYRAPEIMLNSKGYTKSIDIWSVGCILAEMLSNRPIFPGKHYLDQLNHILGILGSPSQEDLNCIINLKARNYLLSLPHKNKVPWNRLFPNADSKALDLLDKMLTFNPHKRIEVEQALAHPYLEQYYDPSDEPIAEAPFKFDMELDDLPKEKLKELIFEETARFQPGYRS
measure: inhibition (%)

1. Cn1cc(-c2cnc3ccc4ccc(CS(=O)(=O)CCc5ccccn5)cc4c(=O)c3c2)cn1 : -1.9
2. O=C(CCc1ccc2ccc3ncc(C4CCNCC4)cc3c(=O)c2c1)NCc1ccccn1 : 3.7
3. Cn1cc(-c2cnc3ccc4ccc(CS(=O)(=O)NCC5CCCCN5)cc4c(=O)c3c2)cn1 (stereo not given) : -4.4
4. Cn1cc(-c2cnc3ccc4ccc(CS(N)(=O)=O)cc4c(=O)c3c2)cn1 : 0.8
5. CN(c1ccc2ccc3ncc(-c4cnn(C)c4)cc3c(=O)c2c1)S(=O)(=O)NCc1ccccn1 : 1.8

----------
biological target: PRKD3 (human); experiment: Caliper, Mobility shift assay off-chip; details: compound 1.0 µM
measure: inhibition (%)

1) CN(c1ccc2ccc3ncc(-c4cnn(C)c4)cc3c(=O)c2c1)S(=O)(=O)NCc1ccccn1 : 9.4
2) Cn1cc(-c2cnc3ccc4ccc(CS(=O)(=O)CCc5ccccn5)cc4c(=O)c3c2)cn1 : 3.6
3) O=C(CCc1ccc2ccc3ncc(C4CCNCC4)cc3c(=O)c2c1)NCc1ccccn1 : 2.2
4) Cn1cc(-c2cnc3ccc4ccc(CS(N)(=O)=O)cc4c(=O)c3c2)cn1 : -1.8
5) Cn1cc(-c2cnc3ccc4ccc(CS(=O)(=O)NCC5CCCCN5)cc4c(=O)c3c2)cn1 (stereo not given) : -4.4

----------
molecular target: RPS6KA2 KD1 KD2 (human) (UniProt Q15349); test: Caliper, Mobility shift assay off-chip; conditions: compound 0.1 µM
Sequence (Q15349 whole entry, looked up): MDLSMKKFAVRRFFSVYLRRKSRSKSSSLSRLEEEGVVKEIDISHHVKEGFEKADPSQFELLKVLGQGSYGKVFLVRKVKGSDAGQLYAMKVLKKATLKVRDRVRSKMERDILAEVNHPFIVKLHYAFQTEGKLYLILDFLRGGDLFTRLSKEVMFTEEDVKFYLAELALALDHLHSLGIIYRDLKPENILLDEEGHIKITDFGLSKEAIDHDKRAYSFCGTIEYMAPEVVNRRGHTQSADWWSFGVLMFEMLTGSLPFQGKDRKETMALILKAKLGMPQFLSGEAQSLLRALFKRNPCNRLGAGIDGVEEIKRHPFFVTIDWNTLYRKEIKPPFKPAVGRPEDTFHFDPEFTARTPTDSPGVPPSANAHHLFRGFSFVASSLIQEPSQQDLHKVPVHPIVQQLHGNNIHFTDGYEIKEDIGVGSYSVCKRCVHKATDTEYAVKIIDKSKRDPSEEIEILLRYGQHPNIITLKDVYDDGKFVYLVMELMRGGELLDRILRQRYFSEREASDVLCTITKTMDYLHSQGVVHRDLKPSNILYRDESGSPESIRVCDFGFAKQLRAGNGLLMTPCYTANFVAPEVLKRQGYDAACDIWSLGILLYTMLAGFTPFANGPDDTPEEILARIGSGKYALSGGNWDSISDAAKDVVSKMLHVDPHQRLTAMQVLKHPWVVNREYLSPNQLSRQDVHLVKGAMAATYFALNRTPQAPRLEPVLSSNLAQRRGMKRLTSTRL
Collected inhibition values appear next to each entry.
measure: inhibition (%)

1. O=C(CCc1ccc2ccc3ncc(C4CCNCC4)cc3c(=O)c2c1)NCc1ccccn1 : -4.2
2. CN(c1ccc2ccc3ncc(-c4cnn(C)c4)cc3c(=O)c2c1)S(=O)(=O)NCc1ccccn1 : -5.9
3. O=c1c2cc(CS(=O)(=O)NCc3ccccn3)ccc2ccc2ncc(C3CCNCC3)cc12 : 2
4. Cn1cc(-c2cnc3ccc4ccc(CS(N)(=O)=O)cc4c(=O)c3c2)cn1 : -0.2
5. Cn1cc(-c2cnc3ccc4ccc(CS(=O)(=O)NC5CCCCC5)cc4c(=O)c3c2)cn1 : 10.4
6. Cn1cc(-c2cnc3ccc4ccc(CS(=O)(=O)NCC5CCCCN5)cc4c(=O)c3c2)cn1 (configuration not stated) : -1.6
7. Cn1cc(-c2cnc3ccc4ccc(CS(=O)(=O)CCc5ccccn5)cc4c(=O)c3c2)cn1 : 6.3

----------
Collected inhibition values appear next to each entry.
biological target: EGFR (human) (UniProt P00533); test: Caliper, Mobility shift assay off-chip; details: compound 0.1 µM
Sequence (P00533 whole entry, looked up): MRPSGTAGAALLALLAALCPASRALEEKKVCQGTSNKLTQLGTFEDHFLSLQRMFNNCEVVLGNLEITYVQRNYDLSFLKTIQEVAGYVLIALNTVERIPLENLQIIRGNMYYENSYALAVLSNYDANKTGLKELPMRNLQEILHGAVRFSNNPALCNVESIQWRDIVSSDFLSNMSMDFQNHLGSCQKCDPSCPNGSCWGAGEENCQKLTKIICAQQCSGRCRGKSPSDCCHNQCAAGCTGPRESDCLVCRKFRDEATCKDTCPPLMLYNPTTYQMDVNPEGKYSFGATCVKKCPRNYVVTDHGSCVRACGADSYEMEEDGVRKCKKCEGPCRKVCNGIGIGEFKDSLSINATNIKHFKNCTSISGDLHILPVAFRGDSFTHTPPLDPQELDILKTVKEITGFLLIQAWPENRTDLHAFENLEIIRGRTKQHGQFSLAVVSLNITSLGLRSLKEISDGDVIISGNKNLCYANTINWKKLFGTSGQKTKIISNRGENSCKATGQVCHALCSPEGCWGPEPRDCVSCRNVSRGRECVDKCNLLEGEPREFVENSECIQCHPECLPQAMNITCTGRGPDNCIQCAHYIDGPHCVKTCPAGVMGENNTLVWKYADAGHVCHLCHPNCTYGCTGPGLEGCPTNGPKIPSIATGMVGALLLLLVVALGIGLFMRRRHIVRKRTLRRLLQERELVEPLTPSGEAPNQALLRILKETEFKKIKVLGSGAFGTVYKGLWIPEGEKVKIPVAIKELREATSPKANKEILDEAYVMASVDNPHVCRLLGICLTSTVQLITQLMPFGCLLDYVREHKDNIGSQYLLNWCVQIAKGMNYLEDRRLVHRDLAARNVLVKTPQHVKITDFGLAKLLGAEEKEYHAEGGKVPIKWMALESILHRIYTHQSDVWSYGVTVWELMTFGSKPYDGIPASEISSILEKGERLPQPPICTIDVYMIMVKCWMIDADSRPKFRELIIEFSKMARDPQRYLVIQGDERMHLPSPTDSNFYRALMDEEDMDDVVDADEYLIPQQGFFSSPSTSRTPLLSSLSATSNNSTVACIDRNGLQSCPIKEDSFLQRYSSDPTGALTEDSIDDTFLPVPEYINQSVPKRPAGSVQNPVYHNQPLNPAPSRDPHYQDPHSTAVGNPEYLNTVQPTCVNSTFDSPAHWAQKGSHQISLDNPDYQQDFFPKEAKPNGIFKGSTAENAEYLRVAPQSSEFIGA
measure: inhibition (%)

1. Cn1cc(-c2cnc3ccc4ccc(CS(=O)(=O)NCC5CCCCN5)cc4c(=O)c3c2)cn1 (configuration not stated) : -4.8
2. Cn1cc(-c2cnc3ccc4ccc(CS(N)(=O)=O)cc4c(=O)c3c2)cn1 : 13.3
3. O=C(CCc1ccc2ccc3ncc(C4CCNCC4)cc3c(=O)c2c1)NCc1ccccn1 : -5.8
4. Cn1cc(-c2cnc3ccc4ccc(CS(=O)(=O)NC5CCCCC5)cc4c(=O)c3c2)cn1 : -1
5. O=c1c2cc(CS(=O)(=O)NCc3ccccn3)ccc2ccc2ncc(C3CCNCC3)cc12 : -36.5
6. Cn1cc(-c2cnc3ccc4ccc(CS(=O)(=O)CCc5ccccn5)cc4c(=O)c3c2)cn1 : -5.8
7. CN(c1ccc2ccc3ncc(-c4cnn(C)c4)cc3c(=O)c2c1)S(=O)(=O)NCc1ccccn1 : -4.8
